experiment-summary: Viability of spleen immune cells cultured in vitro (cytotoxicity)
Format: cell-based, mice
applied-conditions: mouse, immune cells separated from the spleen, cultured in vitro; 3 nM; 3rd day after treatment; based on initial viability
experimental-readout: viability at 3 day, 0.003 µM (%)
Your answer is read as %, so omit the unit and give the number.

Record CCCCCC1=C/C(=C/c2[nH]c(-c3ccc[nH]3)cc2OC)N=C1C [Prodigiosin, prodigiosin] , field viability at 3 day, 0.003 µM: 79

----------
experiment-summary: Viability of spleen immune cells cultured in vitro (cytotoxicity)
Type: cell-based, mice
applied-conditions: mouse, immune cells separated from the spleen, cultured in vitro; 10,000 nM; 2nd day
experimental-readout: viability at 2 day, 10000 nM
Provide a numeric answer, followed by its unit.

Record CCCCCC1=C/C(=C/c2[nH]c(-c3ccc[nH]3)cc2OC)N=C1C , field viability at 2 day, 10000 nM: 4%
